These measurements were taken from the RNAGym collection of RNA variant scans (doi:10.7554/elife.80360).

B1: CPEB3 Ribozyme (parent)
chain: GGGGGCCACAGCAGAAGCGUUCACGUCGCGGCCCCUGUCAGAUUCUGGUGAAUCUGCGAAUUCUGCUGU

Variants of: B1
experimental details: self-cleavage, relative activity (ratio to wild type); higher = more cleavage; co-transcriptional
measurement label: self-cleavage
One number for each entry.

C9A A52G; 1.02

List reported self-cleavage for each of these variants:
1. A8G A15G
2. G14A U21C

## Result
1: 0.777; 2: 0.413

List reported self-cleavage for each of these variants:
1. A23G C32G
2. G2U G47A
3. G56A G58A
4. U53G A59U

## Result
1: 0.337; 2: 0.0706; 3: 0.905; 4: 0.576

List reported self-cleavage for each of these variants:
1. A16U G31C
2. G30C C32U
3. G25C G48C
4. C29U A51C
5. A16G C66A

## Result
[0.147, 0.636, 0.147, 0.356, 0.579]

List reported self-cleavage for each of these variants:
1. C54A U62A
2. G3C U26A

## Result
[0.546, 0.0495]

List reported self-cleavage for each of these variants:
1. C7A G31U
2. A15G G50U
3. U38C A52G
4. G5U A15G
5. C12A G31C
6. G5A U21G

## Result
[0.598, 0.995, 0.909, 0.19, 0.219, 0.161]

List reported self-cleavage for each of these variants:
1. A15G C39U
2. A13G U49G
3. U20G A51C
4. C66U G68U
5. G5U G58U
6. A40G A52C
7. G2U C9U
8. G14C A51U

## Result
[0.893, 0.989, 0.27, 0.969, 0.37, 0.87, 0.176, 0.489]

List reported self-cleavage for each of these variants:
1. U20A C33A
2. G11A G48A

## Result
1: 0.166; 2: 0.906
